pIC50: −log10 of the molar value.
Cathepsin D (Homo sapiens (Human)): reported pIC50 for various compounds.
Sequence (P07339 65-412, species assumed): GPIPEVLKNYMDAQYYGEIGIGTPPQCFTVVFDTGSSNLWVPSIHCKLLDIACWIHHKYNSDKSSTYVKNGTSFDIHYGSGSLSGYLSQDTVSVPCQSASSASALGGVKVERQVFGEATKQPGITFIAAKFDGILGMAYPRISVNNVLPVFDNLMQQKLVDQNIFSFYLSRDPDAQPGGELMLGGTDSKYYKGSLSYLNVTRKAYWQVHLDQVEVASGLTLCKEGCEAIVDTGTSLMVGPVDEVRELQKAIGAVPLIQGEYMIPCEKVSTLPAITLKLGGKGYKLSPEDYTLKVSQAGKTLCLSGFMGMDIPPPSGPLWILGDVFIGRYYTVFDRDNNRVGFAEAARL
Reported Metric: pIC50

compound=C[C@@]1(c2cc(NC(=O)c3ccc(Cl)cn3)ccc2F)CC2(CC2)OC(N)=N1 result="< 4.52"
compound=CC#Cc1cncc(-c2csc([C@]3(C)CC4(CCOCC4)OC(N)=N3)c2)c1 result=4.83
compound=Cc1nc(C(=O)Nc2ccc(F)c([C@]3(C)CC4(CCC4)OC(N)=N3)c2)co1 result="< 4.52"
compound="CC1(c2cc(NC(=O)c3ccc(Cl)cn3)ccc2F)N=C(N)OC2(CCC2)C1(F)F (centres unmarked)" result="< 4.52"
compound=C[C@@]1(c2cc(NC(=O)c3ccc(Cl)cn3)ccc2F)CC2(CCOCC2)OC(N)=N1 result="< 4.52"
compound=CC#Cc1cncc(-c2csc([C@]3(C)CC4(CCC(F)(F)CC4)OC(N)=N3)c2)c1 result=5.25
compound=COc1cccnc1Nc1ccc(F)c([C@]2(C)CC3(CCOCC3)SC(N)=N2)c1 result=4.83
compound="COc1cnc(C(=O)Nc2ccc(F)c(C3(C)N=C(N)OC4(CCC4)C3(F)F)c2)cn1 (centres unmarked)" result="< 4.52"
